These data points were gathered from PubChem BioAssay (NCI).

System: SK-MEL-5 melanoma
procedure-text: NCI tumour cell line growth inhibition, 48 h
Exercise: state measured GI50 for each of the compounds provided.

Reference set (4 entries):
{"columns": ["compound", "recorded-value"],
 "data": [
  ["COc1ccc(-c2cc(-c3ccccc3)nc(N3CCN(CCNc4ccnc5cc(Cl)ccc45)CC3)n2)cc1", "1.62 µM"],
  ["[C-]#[O+].[C-]#[O+].[C-]#[O+].[C-]#[O+].[Ir].[Ir].[O-]c1ccc2ccccc2c1C=Nc1ccc(N=Cc2c([O-])ccc3ccccc23)cc1", "> 100 µM"],
  ["CCCCCCC#Cc1ccccc1C#CCO", "16.8 µM"],
  ["CC(C)C[C@H](NC(=O)[C@H]1O[C@@H]1C(=O)O)C(=O)NCCc1ccc(O)cc1", "> 100 µM"]
]}

--- query ---
Dear colleague, please send me the reported GI50 for `COc1ccc(C/C(C)=C(\c2ccc(OCCN3CCOCC3)cc2)c2ccc(OC(=O)Cc3ccccc3)cc2)cc1` when you can.
0.485 µM
